Test system: Escherichia coli TOP10;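 further: peptides expressed intracellularly from a pBAD plasmid library in pooled LB shake-flask culture, induced with 0.3% L-arabinose, DNA abundance read by NGS, three biological replicates, DESeq2 with apeglm shrinkage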
assay.notes: shrunken log2 fold change of peptide-encoding DNA abundance (4.5 h post-induction vs induction); higher = less antimicrobial activity (less host growth inhibition)
conditions.used: time post-induction: 4.5 h; library: site-saturation at positions 5, 18, 19, 20
Class field: derived from shrunken log2 fold change; ranges L = under -0.04, M = from -0.04 up to 0.08, H = 0.08 and over

Solved entries (count: 8):
RRIRMRPPRLPRPRPRPMIRPRP M
RRIRKRPPRLPRPRPRPHAAPRP L
RRIRPRPPRLPRPRPRPAFVPRP H
RRIRFRPPRLPRPRPRPCYLPRP L
RRIRQRPPRLPRPRPRPHFAPRP M
RRIRVRPPRLPRPRPRPMHPPRP H
RRIRIRPPRLPRPRPRPRCNPRP L
RRIRVRPPRLPRPRPRPDPQPRP H

Consider RRIRCRPPRLPRPRPRPGPPPRP . To which shrunken log2 fold change class does it belong? H

State the band of RRIRRRPPRLPRPRPRPDKGPRP M

State the band of RRIRCRPPRLPRPRPRPETIPRP M

Which category does the recorded shrunken log2 fold change put RRIRKRPPRLPRPRPRPYQFPRP in? L

Please classify: RRIRKRPPRLPRPRPRPPTKPRP H

The reported measurements were obtained from the supplement of paper PMC9112550.
